Data origin: paper PMC4134960

Test system: wild-type MDCKII cells
Assay: Transepithelial transport in monolayers of wild-type MDCKII cells
Details: after 4h, 5 μM (compound 8: 1 μM)
Recorded B to A transport (percentage of drug appearing in the opposite compartment) by entry
EXPERIMENTAL_ENDPOINT: B to A transport (percentage of drug appearing in the opposite compartment) (%)

chemical_smiles=CN(C)C(=O)c1cccc(-c2cc(OC(=O)NC3CCCCC3)ccc2O)c1 recorded_value=43.1
chemical_smiles=CC(=O)c1cccc(-c2cc(OC(=O)NC3CCCCC3)ccc2O)c1 recorded_value=46.8
chemical_smiles=CNC(=O)c1cccc(-c2cc(OC(=O)NC3CCCCC3)ccc2O)c1 recorded_value=48.1
chemical_smiles=NC(=O)c1cccc(-c2cc(OC(=O)NC3CCCCC3)ccc2O)c1 recorded_value=44.3
chemical_smiles=N.NC(=O)c1cccc(-c2cc(OC(=O)NC3CCCCC3)ccc2OS(=O)(=O)O)c1 recorded_value=7.49
chemical_smiles=COc1ccc(OC(=O)NC2CCCCC2)cc1-c1cccc(C(N)=O)c1 recorded_value=37.1
chemical_smiles=O=C(NC1CCCCC1)Oc1ccc(O)c(-c2cccc(C(=O)O)c2)c1 recorded_value=5.21
chemical_smiles=Cc1ccc(OC(=O)NC2CCCCC2)cc1-c1cccc(C(N)=O)c1 recorded_value=27.3

###

Biological target: murine Abcg2 (Mus musculus)
Sequence (Q7TMS5 whole entry): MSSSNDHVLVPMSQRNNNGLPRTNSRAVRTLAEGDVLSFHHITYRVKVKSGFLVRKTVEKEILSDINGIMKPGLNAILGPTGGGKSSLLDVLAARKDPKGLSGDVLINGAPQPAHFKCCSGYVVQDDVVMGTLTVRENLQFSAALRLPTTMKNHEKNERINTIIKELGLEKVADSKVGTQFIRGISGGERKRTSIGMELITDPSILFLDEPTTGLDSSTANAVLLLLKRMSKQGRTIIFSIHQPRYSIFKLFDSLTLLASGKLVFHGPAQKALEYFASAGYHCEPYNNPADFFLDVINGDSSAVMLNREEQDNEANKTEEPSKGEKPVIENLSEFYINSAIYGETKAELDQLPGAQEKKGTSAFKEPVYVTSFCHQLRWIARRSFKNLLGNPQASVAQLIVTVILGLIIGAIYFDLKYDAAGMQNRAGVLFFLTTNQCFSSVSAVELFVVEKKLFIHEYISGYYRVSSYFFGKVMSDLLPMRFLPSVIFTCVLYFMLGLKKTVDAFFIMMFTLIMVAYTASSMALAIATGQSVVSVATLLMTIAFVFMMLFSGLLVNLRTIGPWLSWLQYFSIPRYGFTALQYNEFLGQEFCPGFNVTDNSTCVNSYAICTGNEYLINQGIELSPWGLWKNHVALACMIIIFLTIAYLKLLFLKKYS
Assay: Transepithelial transport in monolayers of MDCKII cells over-expressing Abcg2
Assay type: in vitro ADME
Settings: MDCKII over-expressing Abcg2, after 4h, 5 μM (compound 8: 1 μM)
Below, each of the compounds is paired with its reported B to A transport (percentage of drug appearing in the opposite compartment) value.
EXPERIMENTAL_ENDPOINT: B to A transport (percentage of drug appearing in the opposite compartment) (%)

chemical_smiles=CC(=O)c1cccc(-c2cc(OC(=O)NC3CCCCC3)ccc2O)c1 unit_text=% recorded_value=30.5
chemical_smiles=COc1ccc(OC(=O)NC2CCCCC2)cc1-c1cccc(C(N)=O)c1 unit_text=% recorded_value=98.8
chemical_smiles=CNC(=O)c1cccc(-c2cc(OC(=O)NC3CCCCC3)ccc2O)c1 unit_text=% recorded_value=69.8
